# target-desc: hDGAT1 (Homo sapiens)
# Sequence (O75907 whole entry): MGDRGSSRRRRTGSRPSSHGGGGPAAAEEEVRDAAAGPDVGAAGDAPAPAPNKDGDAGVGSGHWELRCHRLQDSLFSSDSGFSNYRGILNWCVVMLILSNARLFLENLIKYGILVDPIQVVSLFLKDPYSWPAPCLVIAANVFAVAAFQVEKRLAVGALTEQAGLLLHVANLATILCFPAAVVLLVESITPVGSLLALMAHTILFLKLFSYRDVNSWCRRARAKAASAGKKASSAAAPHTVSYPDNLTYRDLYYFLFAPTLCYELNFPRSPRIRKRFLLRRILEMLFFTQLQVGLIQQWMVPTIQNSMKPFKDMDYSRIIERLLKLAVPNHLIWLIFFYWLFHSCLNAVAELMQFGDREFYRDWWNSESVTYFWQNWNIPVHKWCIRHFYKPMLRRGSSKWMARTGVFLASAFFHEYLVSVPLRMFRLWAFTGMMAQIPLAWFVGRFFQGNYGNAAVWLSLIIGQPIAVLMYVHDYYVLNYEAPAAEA
# test-name: In-vitro DGAT1 assay (14C oleoyl CoA, hDGAT1 microsomes from Sf9 cells)
# recorded-conditions: at 1 μM
measured-endpoint: % Inhibition of hDGAT1

Example entries begin here.
CC(C)[C@@H](C(=O)O)N1Cc2ccc(-c3ccc(NC(=O)C4C5CC6CC(C5)CC4C6)cc3)cc2C1=O (stereo partly drawn) : ++ (>50% Inhibition)
CC(C)[C@@H](C(=O)O)N1Cc2cc(-c3ccc(NC(=S)Nc4ccc(C#N)cc4)cc3)ccc2C1=O : + (10-50% Inhibition)
O=C(Nc1ccc(-c2ccc3c(c2)C(=O)N(C24C[C@@H]5C[C@@H](CC(C(=O)O)(C5)C2)C4)C3)cc1)c1cccc(Cl)c1 : + (10-50% Inhibition)
O=C(Nc1ccc(-c2ccc3c(c2)C(=O)N(C2CCC(C(=O)O)CC2)C3)cc1)c1ccc(-c2ccccc2)cc1 (stereo not drawn) : ++ (>50% Inhibition)
Cc1ccc(NC(=O)Nc2ccc(-c3ccc4c(c3)C(=O)N([C@H](C(=O)O)C(C)C)C4)cc2)cc1 : + (10-50% Inhibition)

Q) Can you look up the measured % Inhibition of hDGAT1 of O=C(Nc1ccc(-c2ccc3c(c2)C(=O)N([C@H]2CC[C@H](C(=O)O)CC2)C3)cc1)c1ccc(C(F)(F)F)cc1 for me?
A) + (10-50% Inhibition)

Q) Can you look up the measured % Inhibition of hDGAT1 of O=C(Nc1ccc(-c2ccc3c(c2)C(=O)N(C24C[C@@H]5C[C@@H](CC(C(=O)O)(C5)C2)C4)C3)cc1)c1ccc(C(F)(F)F)cc1 for me?
A) ++ (>50% Inhibition)

Q) Can you look up the measured % Inhibition of hDGAT1 of CC(C)[C@@H](C(=O)O)N1Cc2ccc(-c3ccc(NC(=O)c4ccc(-c5ccccc5)cc4)cc3F)cc2C1=O for me?
A) ++ (>50% Inhibition)

Q) Can you look up the measured % Inhibition of hDGAT1 of Cc1cc(NC(=O)c2ccc(-c3ccccc3)cc2)ccc1-c1ccc2c(c1)C(=O)N([C@H](C(=O)O)C(C)C)C2 for me?
A) ++ (>50% Inhibition)

Q) Can you look up the measured % Inhibition of hDGAT1 of CC(C)[C@@H](C(=O)O)N1Cc2ccc(-c3ccc(NC(=S)Nc4ccccc4C(F)(F)F)cc3)cc2C1=O for me?
A) ++ (>50% Inhibition)

Q) Can you look up the measured % Inhibition of hDGAT1 of CC(C)(C(=O)O)N1Cc2ccc(-c3ccc(NC(=O)c4ccc(-c5ccccc5)cc4)cc3)cc2C1=O for me?
A) ++ (>50% Inhibition)

Q) Can you look up the measured % Inhibition of hDGAT1 of CC(C)[C@@H](C(=O)O)N1Cc2ccc(-c3ccc(NC(=O)c4ccc(-c5ccccc5)cc4)c(F)c3)cc2C1=O for me?
A) ++ (>50% Inhibition)

Q) Can you look up the measured % Inhibition of hDGAT1 of COc1cc(NC(=O)c2ccc(-c3ccccc3)cc2)ccc1-c1ccc2c(c1)C(=O)N([C@H](C(=O)O)C(C)C)C2 for me?
A) ++ (>50% Inhibition)

Q) Can you look up the measured % Inhibition of hDGAT1 of O=C(Nc1ccc(-c2ccc3c(c2)C(=O)N(C2(C(=O)O)CCC2)C3)cc1)c1ccc(-c2ccccc2)cc1 for me?
A) ++ (>50% Inhibition)

Q) Can you look up the measured % Inhibition of hDGAT1 of CC(C)[C@@H](C(=O)O)N1Cc2ccc(-c3ccc(NC(=O)c4cnc5ccccc5c4)cc3)cc2C1=O for me?
A) + (10-50% Inhibition)

Q) Can you look up the measured % Inhibition of hDGAT1 of O=C(Nc1ccc(-c2ccc3c(c2)C(=O)N([C@@H]2CCC[C@@H]2C(=O)O)C3)cc1)c1ccc(-c2ccccc2)cc1 for me?
A) ++ (>50% Inhibition)

Q) Can you look up the measured % Inhibition of hDGAT1 of O=C(Nc1ccc(-c2ccc3c(c2)C(=O)N([C@H]2CC[C@H](C(=O)O)CC2)C3)cc1)c1cccc(Cl)c1 for me?
A) ++ (>50% Inhibition)

Q) Can you look up the measured % Inhibition of hDGAT1 of CC(C)[C@@H](C(=O)O)N1Cc2ccc(-c3ccc(NC(=O)c4ccc(-c5ccccc5)cc4)cc3)cc2C1=O for me?
A) ++ (>50% Inhibition)

Q) Can you look up the measured % Inhibition of hDGAT1 of CC(C)[C@@H](C(=O)O)N1Cc2ccc(-c3cnc(NC(=O)c4ccc(-c5ccccc5)cc4)cn3)cc2C1=O for me?
A) ++ (>50% Inhibition)

Q) Can you look up the measured % Inhibition of hDGAT1 of CC(C)[C@@H](C(=O)O)N1Cc2ccc(-c3ccc(NC(=O)c4ccc(-c5ccccc5)cc4)cn3)cc2C1=O for me?
A) ++ (>50% Inhibition)

Q) Can you look up the measured % Inhibition of hDGAT1 of CC(C)[C@H](C(=O)O)N1Cc2ccc(-c3ccc(NC(=O)c4ccc(-c5ccccc5)cc4)cc3)cc2C1=O for me?
A) ++ (>50% Inhibition)

Q) Can you look up the measured % Inhibition of hDGAT1 of Cc1ccc(C(=O)Nc2ccc(-c3ccc4c(c3)C(=O)N(C35C[C@@H]6C[C@@H](CC(C(=O)O)(C6)C3)C5)C4)cc2)cc1 for me?
A) ++ (>50% Inhibition)

Q) Can you look up the measured % Inhibition of hDGAT1 of COC[C@@H](C(=O)O)N1Cc2ccc(-c3ccc(NC(=O)Nc4cccc(C(F)(F)F)c4)cc3)cc2C1=O for me?
A) + (10-50% Inhibition)

---

inhibition at 1 µM values, listed per item
# target-desc: hDGAT1 (Homo sapiens)
# test-name: In-vitro DGAT1 assay (14C oleoyl CoA, hDGAT1 microsomes from Sf9 cells)
# recorded-conditions: read-out: % Inhibition of hDGAT1

CC(C)[C@@H](C(=O)O)N1Cc2ccc(-c3ccc(NC(=O)c4ncc(-c5ccccc5)s4)cc3)cc2C1=O [Example 612] : > 50%
CC(C)[C@@H](C(=O)O)N1Cc2ccc(-c3ccc(NC(=O)c4ccc(-c5cncnc5)cc4)cc3)cc2C1=O [Example 653] : 10 to 50%
CC(C)(C(=O)O)N1Cc2ccc(-c3ccc(NC(=O)Nc4cccc(C(F)(F)F)c4)cc3)cc2C1=O [Example 340] : 10 to 50%
CC(C)[C@@H](C(=O)O)N1Cc2ccc(-c3ccc(NC(=O)c4ncc(-c5ccccc5)s4)cn3)cc2C1=O [Example 637] : > 50%

Q) Can you look up the measured inhibition at 1 µM of CC(C)[C@@H](C(=O)O)N1Cc2ccc(-c3ccc(NC(=O)c4ccc(OC(F)(F)F)cc4)nn3)cc2C1=O [Example 502] for me?
A) > 50%

Q) Can you look up the measured inhibition at 1 µM of O=C(O)CCCN1Cc2ccc(-c3ccc(NC(=O)Nc4cccc(C(F)(F)F)c4)cc3)cc2C1=O [Example 349] for me?
A) 10 to 50%

Q) Can you look up the measured inhibition at 1 µM of CC(C)[C@@H](C(=O)O)N1Cc2cc(-c3ccc(NS(=O)(=O)c4ccc(F)c(F)c4)cc3)ccc2C1=O [Example 289] for me?
A) 10 to 50%

Q) Can you look up the measured inhibition at 1 µM of Cc1ccc(F)c(C(=O)Nc2ccc(-c3ccc4c(c3)C(=O)N([C@H](C(=O)O)C(C)C)C4)cc2)c1F [Example 166] for me?
A) > 50%

Q) Can you look up the measured inhibition at 1 µM of CCCCOc1ccc(C(=O)Nc2cnc(-c3ccc4c(c3)C(=O)N([C@H](C(=O)O)C(C)C)C4)cn2)cc1 [Example 509] for me?
A) > 50%

Q) Can you look up the measured inhibition at 1 µM of Cc1ccc(NC(=O)Nc2ccc(-c3ccc4c(c3)C(=O)N([C@H](C(=O)O)C(C)C)C4)cc2F)cc1C [Example 436] for me?
A) > 50%

Q) Can you look up the measured inhibition at 1 µM of CC(C)[C@@H](C(=O)O)N1Cc2ccc(-c3ccc(NC(=O)c4ccc(C(F)(F)F)cc4)cc3)cc2C1=O [Example 102] for me?
A) > 50%

Q) Can you look up the measured inhibition at 1 µM of CC(C)[C@@H](C(=O)O)N1Cc2ccc(-c3ccc(NC(=O)c4ccc(F)cc4F)cc3)cc2C1=O [Example 110] for me?
A) > 50%

Q) Can you look up the measured inhibition at 1 µM of Cc1ccc(NC(=S)Nc2ccc(-c3ccc4c(c3)C(=O)N([C@H](C(=O)O)C(C)C)C4)cc2)cc1 [Example 54] for me?
A) 10 to 50%

Q) Can you look up the measured inhibition at 1 µM of CCCCOc1ccc(C(=O)Nc2ccc(-c3ccc4c(c3)C(=O)N([C@H](C(=O)O)C(C)C)C4)c(C)c2)cc1 [Example 472] for me?
A) > 50%
